Entry source: patent US20110064733A1

Recorded EC50 for the following binders
target: T1, Muc1 mucin bearing the CA6 sialoglycotope (DS6 antigen), as expressed by CA6-positive human tumour cell lines (human, UniProt P15941 24-1255, sialylated O-linked carbohydrate carrying the CA6 glycotope; sites not stated); experiment: flow cytometry competition; competitor 2 nM biotin-muDS6, streptavidin-DTAF; called IC50 in the legend of FIG. 19
T1 construct: whole, on cells; It stood on whole cells in flow cytometry and in cell lysates in dot blots, immunoprecipitations and western blots; also called CA6 antigen; Muc1 mucin receptor
Express your answer in nM, writing the number without its unit.

| BINDER | UNITS_OF_MEASURE | EC50 |
| --- | --- | --- |
| humanized DS6 antibody version 1.21 (antibody, V domains shown, also called huDS6v1.21; huDS6 v1.21) VH: QAQLVQSGAEVVKPGASVKMSCKASGYTFTSYNMHWVKQTPGQGLEWIGYIYPGNGATNYNQKFQGKATLTADPSSSTAYMQISSLTSEDSAVYFCARGDSVPFAYWGQGTLVTVSA VL: EIVLTQSPATMSASPGERVTITCSAHSSVSFMHWFQQKPGTSPKLWIYSTSSLASGVPARFGGSGSGTSYSLTISSMEAEDAATYYCQQRSSFPLTFGAGTKLELKR | nM | 1.9 |
| chimeric DS6 antibody (antibody, V domains shown, Expressed in CHO cells; also called chDS6) VH: QAYLQQSGAELVRSGASVKMSCKASGYTFTSYNMHWVKQTPGQGLEWIGYIYPGNGATNYNQKFKGKATLTADPSSSTAYMQISSLTSEDSAVYFCARGDSVPFAYWGQGTLVTVSA VL: QIVLTQSPAIMSASPGEKVTITCSAHSSVSFMHWFQQKPGTSPKLWIYSTSSLASGVPARFGGSGSGTSYSLTISRMEAEDAATYYCQQRSSFPLTFGAGTKLELKR | nM | 1.7 |
| murine anti-CA6 monoclonal antibody DS6 (antibody, mouse IgG1, V domains shown, Whole murine monoclonal antibody from the hybridoma (ATCC PTA-4449); They were cloned with murine IgG1 and kappa primers; also called muDS6; the DS6 antibody) VH: QAYLQQSGAELVRSGASVKMSCKASGYTFTSYNMHWVKQTPGQGLEWIGYIYPGNGATNYNQKFKGKATLTADPSSSTAYMQISSLTSEDSAVYFCARGDSVPFAYWGQGTLVTVSA VL: QIVLTQSPAIMSASPGEKVTITCSAHSSVSFMHWFQQKPGTSPKLWIYSTSSLASGVPARFGGSGSGTSYSLTISRMEAEDAATYYCQQRSSFPLTFGAGTKLELKR | nM | 1.9 |

// next item, EC50 requested
Asked: Entry humanized DS6 antibody version 1.01 (antibody, V domains shown, also called huDS6v1.01; huDS6 v1.01) VH: QAQLVQSGAEVVKPGASVKMSCKASGYTFTSYNMHWVKQTPGQGLEWIGYIYPGNGATNYNQKFQGKATLTADTSSSTAYMQISSLTSEDSAVYFCARGDSVPFAYWGQGTLVTVSA VL: EIVLTQSPATMSASPGERVTITCSAHSSVSFMHWFQQKPGTSPKLWIYSTSSLASGVPARFGGSGSGTSYSLTISSMEAEDAATYYCQQRSSFPLTFGAGTKLELKR has what EC50?
Given back: 3
